test: Human liver microsomal stability assay; format: in vitro ADME; details: human, liver microsomes, T1/2, human microsomal assay
observation type: half-life at 1 h (min)

• Nc1nnc(-c2ccccc2O)cc1N1CCN(Cc2ccc(N3CCN(CCOc4cccc5c4C(=O)N(C4CCC(=O)NC4=O)C5=O)CC3)c(F)c2)CC1 (stereo not shown) = 34.9

====

assay: Plasma pharmacokinetics after single oral or intraperitoneal dose; assay type: in vivo, mouse; conditions: CD-1, mouse, plasma, oral, 25 mg/kg
observation type: half-life

- Nc1nnc(-c2ccccc2O)cc1N1CCN(Cc2ccc(N3CCC(CN4CCN(c5ccc6c(c5)C(=O)N(C5CCC(=O)NC5=O)C6=O)CC4)CC3)c(F)c2)CC1 (stereo not shown): > 24 h

====

experiment: Mouse liver microsomal stability assay; format: in vitro ADME; conditions: mouse, liver microsomes
microsomal CLint at 1 h for assorted molecules
observation type: microsomal CLint at 1 h (µL/min/mg)

- Nc1nnc(-c2ccccc2O)cc1N1CCN(Cc2ccc(N3CCC(CN4CCN(c5ccc6c(c5)C(=O)N(C5CCC(=O)NC5=O)C6=O)CC4)CC3)c(F)c2)CC1 (centres unmarked) [YDR1]: 23.2
- Nc1nnc(-c2ccccc2O)cc1N1CCN(Cc2ccc(N3CCN(CCOc4cccc5c4C(=O)N(C4CCC(=O)NC4=O)C5=O)CC3)c(F)c2)CC1 (centres unmarked) [YD54]: 30.2
